Provide the recorded pEC50 for the entries that follow.
tgt: SARS-CoV-2 S2 domain (UniProt P0DTC2 686-1213)
assay protocol: ELISA
Answers are plain numbers, as −log10 of the molar value.

Consider the following illustrative entries.
{"binder": "10-B11-A (antibody, V domains shown) VH: QVQLQQPGAELVKPGASVKVSCKASGYTFTSYWMHWVKQRPGQGLEWIGRIHPSDSDTNYYQKFKGKATLSVDKSSSTAYMQLSSLTSEDSAVYYCAIPLYSYDNSGGYYPMDYWGQGTSVTVSS VL: DIVMTQSQKFMSTSVGDRVTITCKASQNVRTAVAWYQQKPGQSPKKLIYLASNRHTGVPDRFTGSGSGTDFTLAISNVQSEDLADYFCLQHWNYPFTFGSGTRLEIK", "experimental endpoint": "pEC50", "readout value": 8.95}
{"binder": "2-J9-A (antibody, V domains shown) VH: EVQLQQSGPELVKPGASVKMSCKASGYTFTDYNIHWVKQSHGKSLEWIGYINPNNGGTDYNQKFQGKATLTVNKSSSTAYMELRSLTSEDSAVYYCARGGFYGNYGAYYGMDFWGQGTSVTVSS VL: DIQMTQSPASLSASVGETVTITCRTSENIYSHLAWYQQTQGKSPQLLVYNTKTLAEGVPSRFTGSGSGTQFSLKINSLQPEDFGSYYCQHHYGIPPEFGGGTKLEIK", "experimental endpoint": "pEC50", "readout value": 10.30}

Turning now to a further record.
Give its pEC50 value. Item: 2-P2-A (antibody, V domains shown) VH: EVQLQQSGAELVRPGSSVKMSCKTSGYTFTSYGINWVKQRPGQGLEWIGYIYIGNGYTEYNEKFKGKATLTSDTSSSTAYMQLSSLTSEDSAIYFCARGGVDYWGQGTTLTVSS VL: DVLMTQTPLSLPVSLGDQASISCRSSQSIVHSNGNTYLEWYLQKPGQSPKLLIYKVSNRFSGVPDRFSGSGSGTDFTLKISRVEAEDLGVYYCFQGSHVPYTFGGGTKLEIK 10.15

The origin of these recorded values is patent US20240239875A1.
